Data provenance: patent US10590193

Biological target: T1, human VEGF121 (human, UniProt P15692)
T1 chain: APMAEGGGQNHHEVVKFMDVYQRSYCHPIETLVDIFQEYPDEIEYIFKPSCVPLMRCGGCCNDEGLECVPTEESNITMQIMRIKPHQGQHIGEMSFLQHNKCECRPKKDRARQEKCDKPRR
Assay: SPR, pH 5
List of Kd values.
Please give a number only; it is taken to be in nM.

Answered cases to consult:
567-min (antibody, V domains shown) VH: EVQLVESGGGLVQPGGSLRLSCAASGFSLSDYYMCWVRQAPGKGLEWVSCLDYFGSTDDASWAKGRFTISRDNSKNTLYLQMNSLRAEDTAVYYCAKTDDSRGWGLNIWGQGTLVTVSS VL: EIVMTQSPSTLSASVGDRVIITCQADQSIYIWLSWYQQKPGKAPKLLIYKASTLESGVPSRFSGSGSGAEFTLTISSLQPDDFATYYCQNNAHYSTNGGTFGQGTKLTVLG: 0.0241
567-max (antibody, V domains shown) VH: EVQLVESGGGLVQPGGSLRLSCSVSGFSLSDYYMCWVRQAPGKGLEWVGCLDYFGSTDDASWAKGRFTISKDTSKNTVYLQMNSLRAEDTAVYYCARTDDSRGWGLNIWGQGTLVTVSS VL: EIVMTQSPSTLSASVGDRVIITCQADQSIYIWLSWYQQKPGKAPKLLIYKASTLESGVPSRFSGSGSGTQFTLTISSLQPDDFATYYCQNNAHYSTNGGTFGQGTKLTVLG: 0.0511
578-min (antibody, V domains shown) VH: EVQLVESGGGLVQPGGSLRLSCAASGFSLTDYYYMTWVRQAPGKGLEWVSFIDPDDDPYYATWAKGRFTISRDNSKNTLYLQMNSLRAEDTAVYYCAKGDHNSGWGLDIWGQGTLVTVSS VL: EIVMTQSPSTLSASVGDRVIITCQASEIIHSWLAWYQQKPGKAPKLLIYLASTLASGVPSRFSGSGSGAEFTLTISSLQPDDFATYYCQNVYLASTNGANFGQGTKLTVLG: 9.16
511-max (antibody, V domains shown) VH: EVQLVESGGGLVQPGGSLRLSCTVSGFSLNTYYMNWVRQAPGKGLEWVGIIAPDDTTYYASWAKSRSTISRDTSKNTVYLQMNSLRAEDTAVYYCARSGDTTAWGADIWGQGTLVTVSS VL: EIVMTQSPSTLSASVGDRVIITCQASQSINIWLSWYQQKPGKAPKLLIYRASTLASGVPSRFSGSGSGTEFTLTISSLQPDDFATYYCQANYAYSAGYGAAFGQGTKLTVLG: 0.214

Turning now to a further record.
IN: Give me measured Kd, please, for this binder: 509-max (antibody, V domains shown) VH: EVQLVESGGGLVQPGGSLRLSCTASGFSLSSYYMCWVRQAPGKGLEWVGCLDYVGDTDYASWAKGRFTISKDASKNTVYLQMNSLRAEDTAVYYCARTDDSRGWGLNIWGQGTLVTVSS VL: EIVMTQSPSTLSASVGDRVIITCQASQNIRIWLSWYQQKPGKAPKLLIYKASTLESGVPSRFSGSGSGTEFTLTISSLQPDDFATYYCQNNAHYSTNGGTFGQGTKLTVLG
OUT: 0.335
